Assay: soluble fraction after stress (log2 fold change); higher = more stays soluble; pooled small domains, quantitative proteomics
Conditions: stress: 50 degC
recorded-metric: soluble fraction (log2)
I'd appreciate a reply containing only the number, no unit.

query: Entry under review: HMSQVHYAVLFKNASAAEATEIVTYARETLGVQDIKINANGDILVPEDKVEEMRVSMSIAGFPK . Reported soluble fraction (log2)?
result: 0.22

query: Would you mind telling me what soluble fraction (log2) value was observed for HMEDKIEESLEDNISELFAKTKDKYTLINDLYSKGYTVEELSRFSGLPSGEVRLVISLNSKN ?
result: 0.0392

query: Quick one: soluble fraction (log2) for HMISEGDIIKGTVIDVNEEEVILDLKYYAQGVIKAENLSNDPDFLAAGKISVGDEIEATVIKMDDGEGNIE ?
result: 0.0355

query: Could you share which soluble fraction (log2) value was measured for HMAASEAESIRILLSEGVDRVHLRKPQSAEADMRRLIEALPPELYPRLTLQDHLHLAGEYGT ?
result: 0.0186

query: Need soluble fraction (log2) of HMPDAIPLETIIKNVNVLAGFLINSKTFTEDDIVMAYNNIMKIKGDHTDEKTLTNDVYTLLTEMN , thanks.
result: -0.469

query: Which value of soluble fraction (log2) has been reported for HMVNTVEVQGNTIYSAEEIRSASGIQKGDNLFTLNKEAAAGSIKASLPYVETVSIIRFLPDKIVIEVKE in the records?
result: -0.473

query: So what does the record say about soluble fraction (log2) for HMNKSGVVLIRVTVDASGRVTSAAYEPKGSTTSDVELVAEARKAALRTRFTESRTVIEGGVITYIFKL ?
result: -2.28

query: Given HMIKEGDLVFIWNPKKGDSFLIKVQPGQSQGTHFGQIKHSEIMEHNYGEGIRTPKGQVYYLLRPTLGEFTR , state its recorded soluble fraction (log2).
result: -1.14
